Source: the supplement of paper PMC11208160

protocol: recombinant barcode read abundance after kanamycin selection (control-corrected) (log10(CPM+1)); higher = more efficient recombination; sequences stand for … in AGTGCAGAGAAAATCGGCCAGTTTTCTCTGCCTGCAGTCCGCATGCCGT…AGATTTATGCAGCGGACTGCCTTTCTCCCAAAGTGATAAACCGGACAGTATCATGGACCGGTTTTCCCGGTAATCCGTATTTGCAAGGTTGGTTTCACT; site = the 11-nt target
Returns one of y or n; y when recombinant barcode read abundance (log10) is >= 0.6.

Study these solved cases before continuing.
entrySequence | label
TGAAGGTCTTGGGTTCTAACCTGTTGCCT (site TGAACGTCTAG) | n
TGTCTATCTTGGGTTCTAACCTGTTGCCT (site TGTCTACCTAG) | n
CACCAGTCTTGGGTTCTAACCTGTTGCGG (site CACAAGTCTAC) | n
CGAGGGCCTTGGGTTCTAACCTGTTGCCT (site CGAGGGGCTAG) | n
GTCTCATCTTGGGTTCTAACCTGTTGCCT (site GTCTTATCTAG) | n
AGTCACACTTGGGTTCTAACCTGTTGCTG (site AGTCACACTCA) | y
CAGGACTCTTGGGTTCTAACCTGTTGCTT (site CAGCACTCTTA) | n

Shifting focus to the sequence that follows.
# input Does the reported recombinant barcode read abundance (log10) for TACCACTCTTGGGTTCTAACCTGTTGCCT (site TACCACTCTAG) fall at or above the 0.6 mark?
# output y

====

protocol: recombinant UMI read abundance after kanamycin selection (control-corrected) (log10(CPM+1)); higher = more efficient recombination; extreme values may be limits of the assay; sequences stand for … in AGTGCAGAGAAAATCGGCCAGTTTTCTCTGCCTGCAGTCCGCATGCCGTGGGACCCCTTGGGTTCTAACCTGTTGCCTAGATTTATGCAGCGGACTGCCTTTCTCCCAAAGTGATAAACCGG…AGGTTGGTTTCACT; site = the 11-nt donor
measuredParameter: recombinant UMI read abundance (log10)
Numbers only.

Before answering, review these 2 worked examples.
entrySequence | recombinant UMI read abundance (log10)
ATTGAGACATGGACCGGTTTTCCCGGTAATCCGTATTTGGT (site ATAGAGACTAC) | 1.78
CCGGCACCATGGACCGGTTTTCCCGGTAATCCGTATTTGAT (site CCGGCACCTAT) | 0.00703

Could you report recombinant UMI read abundance (log10) for every entry in the following list?
1. ACTATAGCATGGACCGGTTTTCCCGGTAATCCGTATTTGCA (site ACTATAGCTTG)
2. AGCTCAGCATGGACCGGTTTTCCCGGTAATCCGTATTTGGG (site AGCTGAGCTCC)
3. CCTACAGCATGGACCGGTTTTCCCGGTAATCCGTATTTGAT (site CCTAAAGCTAT)
4. CCAGGTGCATGGACCGGTTTTCCCGGTAATCCGTATTTGAC (site CCAGGTGCTGT)
5. TAGCTCGCATGGACCGGTTTTCCCGGTAATCCGTATTTGAA (site TAGCTCGCTTT)
6. GGCTGACCATGGACCGGTTTTCCCGGTAATCCGTATTTGAA (site GGCTGACCTTT)

# output
1: 1.94; 2: 0; 3: 0; 4: 0.637; 5: 1.27; 6: 0.00353

====

protocol: recombinant UMI read abundance after kanamycin selection (control-corrected) (log10(CPM+1)); higher = more efficient recombination; extreme values may be limits of the assay; sequences stand for … in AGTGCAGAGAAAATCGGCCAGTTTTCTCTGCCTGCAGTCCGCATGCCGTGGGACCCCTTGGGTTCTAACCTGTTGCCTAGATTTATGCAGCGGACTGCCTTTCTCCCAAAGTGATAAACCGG…AGGTTGGTTTCACT; site = the 11-nt donor
measuredParameter: recombinant UMI read abundance (log10)
Give bare numbers.

Before answering, review these 5 worked examples.
entrySequence | valueReported
GAATGGCCATGGACCGGTTTTCCCGGTAATCCGTATTTGGA (site GAATGGCCTTT) | 0.0129
ACGTTCCCATGGACCGGTTTTCCCGGTAATCCGTATTTGTG (site ATGTTCCCTCA) | 0.0196
CCGTCCCCATGGACCGGTTTTCCCGGTAATCCGTATTTGCT (site CCGTCCCCTAG) | 0.00559
TTGACGTCATGGACCGGTTTTCCCGGTAATCCGTATTTGTT (site TTGACGTCTAA) | 0.101
GTTAGCACATGGACCGGTTTTCCCGGTAATCCGTATTTGGC (site GTTAGAACTGC) | 0

Could you report recombinant UMI read abundance (log10) for every entry in the following list?
1. GAAGCGCCATGGACCGGTTTTCCCGGTAATCCGTATTTGTG (site CAAGCGCCTCA)
2. CTGGAATCATGGACCGGTTTTCCCGGTAATCCGTATTTGCA (site CTGGAAACTTG)
3. GGCTCAGCATGGACCGGTTTTCCCGGTAATCCGTATTTGGG (site AGCTCAGCTCC)
4. TAAGCGCCATGGACCGGTTTTCCCGGTAATCCGTATTTGTG (site CAAGCGCCTCA)

# output
1. 0.00406
2. 1.56
3. 0.00802
4. 0.0975

====

I'd be grateful if you could share measured recombinant UMI read abundance (log10) for these entries.
protocol: recombinant UMI read abundance after kanamycin selection (control-corrected) (log10(CPM+1)); higher = more efficient recombination; extreme values may be limits of the assay; sequences stand for … in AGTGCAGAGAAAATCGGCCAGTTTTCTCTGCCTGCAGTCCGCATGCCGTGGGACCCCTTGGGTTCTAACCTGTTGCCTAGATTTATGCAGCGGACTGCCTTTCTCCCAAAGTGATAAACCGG…AGGTTGGTTTCACT; site = the 11-nt donor
Answers are plain numbers.

entrySequence | recombinant UMI read abundance (log10)
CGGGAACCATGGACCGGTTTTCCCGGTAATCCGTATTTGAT (site CGGGAACCTTT) | 0.00554
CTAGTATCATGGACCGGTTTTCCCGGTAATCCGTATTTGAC (site TAAGTATCTGT) | 0
ATAGTTTCATGGACCGGTTTTCCCGGTAATCCGTATTTGAC (site ATAGTTTCTGT) | 2.62

Could you report recombinant UMI read abundance (log10) for every entry in the following list?
1. CAAGAGACATGGACCGGTTTTCCCGGTAATCCGTATTTGCG (site CAAGAGACTCG)
2. AAGGGTTCATGGACCGGTTTTCCCGGTAATCCGTATTTGTC (site AAGGGTTCTGA)
3. CAAGAGCCATGGACCGGTTTTCCCGGTAATCCGTATTTGGG (site CAAGAGCCTCC)
4. CGTAAGACATGGACCGGTTTTCCCGGTAATCCGTATTTGAG (site CGTAAGACTCT)
5. GGGGAGACATGGACCGGTTTTCCCGGTAATCCGTATTTGCC (site GGGGAGACTGG)
6. CCTCATACATGGACCGGTTTTCCCGGTAATCCGTATTTGGC (site CCTGATACTGC)

# output
1. 3.11
2. 2.5
3. 0.00368
4. 1.73
5. 2.07
6. 0

====

protocol: recombinant barcode read abundance after kanamycin selection (control-corrected) (log10(CPM+1)); higher = more efficient recombination; sequences stand for … in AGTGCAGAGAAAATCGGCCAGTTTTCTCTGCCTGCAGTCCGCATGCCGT…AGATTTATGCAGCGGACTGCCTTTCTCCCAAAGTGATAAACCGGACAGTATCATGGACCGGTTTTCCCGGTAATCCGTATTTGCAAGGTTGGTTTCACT; site = the 11-nt target
I'd be grateful if you could share measured recombinant barcode read abundance (log10) for these entries.
Numbers only.

entrySequence | valueReported
GTCGGGACTTGGGTTCTAACCTGTTGCCT (site GTCGGCACTAG) | 0.113
CTAGGAGCTTGGGTTCTAACCTGTTGCTC (site CTAGGAGCTCA) | 0.222
ATAGGAACTTGGGTTCTAACCTGTTGCCT (site ATGGGCACTAG) | 0.0276
CCGAGTCCTTGGGTTCTAACCTGTTGCCT (site CCGACTCCTAG) | 0.303

# input recombinant barcode read abundance (log10) for ATATGCGCTTGGGTTCTAACCTGTTGCCG (site ATATGCGCTCG) ?
# output 1.43

====

protocol: recombinant UMI read abundance after kanamycin selection (control-corrected) (log10(CPM+1)); higher = more efficient recombination; extreme values may be limits of the assay; sequences stand for … in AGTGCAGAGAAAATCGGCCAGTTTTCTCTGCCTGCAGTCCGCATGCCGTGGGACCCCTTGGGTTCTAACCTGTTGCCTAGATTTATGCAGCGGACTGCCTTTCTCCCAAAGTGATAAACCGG…AGGTTGGTTTCACT; site = the 11-nt donor
measuredParameter: recombinant UMI read abundance (log10)
Give bare numbers.

entrySequence | recombinant UMI read abundance (log10)
TTCACCGCATGGACCGGTTTTCCCGGTAATCCGTATTTGCG (site TCCACCGCTCG) | 0.017
TGAGTTTCATGGACCGGTTTTCCCGGTAATCCGTATTTGCT (site TGAGTTTCTAG) | 1.54

Could you report recombinant UMI read abundance (log10) for every entry in the following list?
1. ATTTATGCATGGACCGGTTTTCCCGGTAATCCGTATTTGGA (site AGTTATGCTTC)
2. ATATTCGCATGGACCGGTTTTCCCGGTAATCCGTATTTGCT (site ATATTCGCTAG)
3. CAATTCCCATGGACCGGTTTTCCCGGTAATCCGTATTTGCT (site CACTTCCCTAG)
4. CTGAATCCATGGACCGGTTTTCCCGGTAATCCGTATTTGGT (site CGGAATCCTAA)
5. CAGTGCTCATGGACCGGTTTTCCCGGTAATCCGTATTTGAA (site CAGTGCTCTTT)
6. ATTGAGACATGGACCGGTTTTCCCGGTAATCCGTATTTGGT (site ATTGAGACTAG)

# output
1. 0.744
2. 2.58
3. 0.171
4. 0.0153
5. 2.48
6. 0.772

# input recombinant UMI read abundance (log10) for GGTTACTCATGGACCGGTTTTCCCGGTAATCCGTATTTGGA (site GGTTACTCTTC) ?
# output 1.18
